I'd appreciate it if you could supply viability, T/C values for the items below.
# System: 648629-189-R-J1-PDC complex spheroids viability;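 also: drug exposure lasted seven days before viability readout; 100% = DMSO vehicle control wells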
# assayComment: Anticancer human tumor 648629-189-R-J1-PDC patient-derived bladder carcinoma cell line growth inhibition [CLK]
# measurementParameters: second compound 3.16 µM; first compound 0.0316 µM; active compounds read low
Give bare numbers, in %.

compound: Nc1ccccc1NC(=O)c1ccc(CNC(=O)OCc2cccnc2)cc1 + CNC(=O)c1ccc(Nc2nc(OC3CCCC3)c3c(-c4ccc5nc(C)oc5c4)c[nH]c3n2)c(OC)c1
resultValue: 18.9
--
compound: C=C(F)C(=O)N1CCN(c2nc(OCC3CCCN3C)nc3c2CCN(c2cccc4cccc(Cl)c24)C3)CC1CC#N (centres undefined) + CNC(=O)c1ccc(Nc2nc(OC3CCCC3)c3c(-c4ccc5nc(C)oc5c4)c[nH]c3n2)c(OC)c1
resultValue: 18.8
--
compound: C=CC(=O)N1CCN(c2nc(=O)n(-c3c(C)ccnc3C(C)C)c3nc(-c4c(O)cccc4F)c(F)cc23)C(C)C1 (centres undefined) + CN1CCN(c2cc(C(=O)Nc3cc4cc(-c5cnn(C)c5)ccc4cn3)ccn2)CC1
resultValue: 0.13
--
compound: C#Cc1c(F)ccc2cc(O)cc(-c3ncc4c(N5CC6CCC(C5)N6)nc(OCC56CCCN5CC(F)C6)nc4c3F)c12 (centres undefined) + CNC(=O)c1ccc(Nc2nc(OC3CCCC3)c3c(-c4ccc5nc(C)oc5c4)c[nH]c3n2)c(OC)c1
resultValue: 17.2
--
compound: CC(Nc1ccc2c(c1)OCCn1cc(N3C(=O)OCC3C(F)F)nc1-2)C(N)=O (centres undefined) + CNC(=O)c1ccc(Nc2nc(OC3CCCC3)c3c(-c4ccc5nc(C)oc5c4)c[nH]c3n2)c(OC)c1
resultValue: 16.7

I have 4 compounds here; please give me viability, T/C for each one.
1. Cn1ncnc1[C@H]1c2n[nH]c(=O)c3cc(F)cc(c23)N[C@@H]1c1ccc(F)cc1 + CNC(=O)c1ccc(Nc2nc(OC3CCCC3)c3c(-c4ccc5nc(C)oc5c4)c[nH]c3n2)c(OC)c1
2. C#Cc1c(F)ccc2cc(O)cc(-c3ncc4c(N5CC6CCC(C5)N6)nc(OCC56CCCN5CC(F)C6)nc4c3F)c12 (centres undefined) + CN1CCN(c2cc(C(=O)Nc3cc4cc(-c5cnn(C)c5)ccc4cn3)ccn2)CC1
3. COC1C=CCC(C)C(C)S(=O)(=O)NC(=O)c2ccc3c(c2)N(CC2CCC21)CC1(CCCc2cc(Cl)ccc21)CO3 (centres undefined) + CN1CCN(c2cc(C(=O)Nc3cc4cc(-c5cnn(C)c5)ccc4cn3)ccn2)CC1
4. CCc1c2c(nc3ccc(O)cc13)-c1cc3c(c(=O)n1C2)COC(=O)[C@]3(O)CC + CNC(=O)c1ccc(Nc2nc(OC3CCCC3)c3c(-c4ccc5nc(C)oc5c4)c[nH]c3n2)c(OC)c1

1. 17
2. 0.13
3. 0.13
4. 9.98
